# Target Entity: Cytochrome P450 1A2 (Homo sapiens) (UniProt P05177)
# Sequence (P05177 whole entry, looked up): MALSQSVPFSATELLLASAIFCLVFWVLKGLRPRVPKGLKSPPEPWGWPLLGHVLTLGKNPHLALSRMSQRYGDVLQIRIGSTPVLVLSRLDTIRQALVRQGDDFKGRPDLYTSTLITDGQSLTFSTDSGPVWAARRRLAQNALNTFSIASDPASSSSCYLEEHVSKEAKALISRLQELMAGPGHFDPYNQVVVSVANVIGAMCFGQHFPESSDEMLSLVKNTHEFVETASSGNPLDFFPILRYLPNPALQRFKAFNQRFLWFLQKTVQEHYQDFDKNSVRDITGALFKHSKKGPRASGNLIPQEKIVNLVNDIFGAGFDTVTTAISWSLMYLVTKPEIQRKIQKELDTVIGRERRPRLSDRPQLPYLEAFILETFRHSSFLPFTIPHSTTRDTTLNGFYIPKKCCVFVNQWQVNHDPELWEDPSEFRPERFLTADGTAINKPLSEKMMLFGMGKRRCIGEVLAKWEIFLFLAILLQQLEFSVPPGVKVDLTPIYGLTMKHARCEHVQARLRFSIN
# Test Summary: p450-cyp1a2 (AID 410)
# Applied Conditions: recombinant CYP1A2, luciferin-ME demethylation, luminescence; series mostly up to 57 µM
Records with an inconclusive call do not appear. Calls of active or inactive are those of the source. The call rests on the fitted dose curve. Where a SMILES comes first, the peptide text is derived from it.
Outcomes you can answer with include only these: Y (active), N (inactive)

>>> classification("CC(C)C[C@@H](CC(=O)N[C@@H](CCC(=O)O)CC(=O)O)NC(=O)[C@@H]1CCCC[C@H]1NC(=O)C[C@H](CCCN)NC(=O)C[C@H](Cc1ccccc1)NC(=O)[C@@H]1CNCC[C@H]1N")
"N"
>>> classification("COC(=O)[C@@]1(Cc2ccccc2)[C@H]2c3cc(C(=O)N4CCCC4)n(Cc4ccc(C(F)(F)F)nc4)c3C[C@H]2CN1C(=O)c1ccccc1")
"N"

What outcome does the record of this test show for N[C@@H](Cc1c[nH]c2ccccc12)C(=O)NCC(=O)O (H-Trp-Gly-OH) ?
N

Just curious, what result did COC(=O)[C@@]1(Cc2ccc(F)cc2)[C@H]2c3cc(C(=O)N(C)C)n(Cc4cc(F)c(F)c(F)c4)c3C[C@H]2CN1C(=O)c1ccccc1 get here?
N

Write down the call the test reported for this molecule. Item: C[C@@H](C(=O)Nc1ccc2ccccc2c1)[C@H]1C[C@]1(C)[C@H](NC(=O)OCc1ccccc1)c1ccccc1
Y
